- target_entity: T1, Notch2Long (Notch2 EGF6-EGF12) (human, UniProt Q04721 219-418, biotin on the N-terminal Avi tag (enzymatic))
- T1 construct: also called N2L protein; hNotch2; not shown: Avi tag, N-terminal, kept
- T1 sequence (looked up): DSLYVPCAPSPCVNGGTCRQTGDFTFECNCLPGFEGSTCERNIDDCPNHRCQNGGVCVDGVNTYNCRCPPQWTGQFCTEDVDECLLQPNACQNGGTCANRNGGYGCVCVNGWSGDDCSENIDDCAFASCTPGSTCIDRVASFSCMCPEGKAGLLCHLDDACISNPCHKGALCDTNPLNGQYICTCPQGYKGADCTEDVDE
- test_description: ELISA
- assay_setup: one partner purified
quantity: ELISA

Some solved cases for reference:
                                     binder  test_result
0  GCIKSHLWCPPPRRCEAGCICEVWIQCG (designed binder) [N2L.EET31.43.35 displayed on M13 phage (p3)]          2.1
1  GCIKSHLWCKQDSDCEAGCICEVWIQCG (designed binder, also called N2L.31.L34.43) [N2L.EET31.43 displayed on M13 phage (p3)]          0.7
2  GCIKSHLWCHPKLDCEAGCICEVWIQCG (designed binder) [N2L.EET31.43.18 displayed on M13 phage (p3)]          2.1

What value of ELISA has been reported for the following binder? GCIKSHLWCDPRVSCEAGCICEVWIQCG (designed binder) [N2L.EET31.43.78 displayed on M13 phage (p3)]
1.9

What value of ELISA has been reported for the following binder? GCIKSHLWCPRHEKCLAGCVCEVWIRCG (designed binder) [N2L.EET31.32.29 displayed on M13 phage (p3)]
2

What value of ELISA has been reported for the following binder? GCIRSQLWCPSDERCLAGCVCEVWIKCG (designed binder) [N2L.EET31.32.80 displayed on M13 phage (p3)]
2.1

What value of ELISA has been reported for the following binder? GCVRSHVWCPSDERCLAGCVCEIWIRCG (designed binder) [N2L.EET31.32.85 displayed on M13 phage (p3)]
2

What value of ELISA has been reported for the following binder? GCIKSHLWCPGKERCLAGCICEIWIQCG (designed binder) [N2L.EET31.32.48 displayed on M13 phage (p3)]
1.9

What value of ELISA has been reported for the following binder? GCGWTLRHCKQDSDCLAGCVCRPIWYCG (designed binder) [N2L.EET03.10 displayed on M13 phage]
3

What value of ELISA has been reported for the following binder? GCIKSHLWCDPRKSCEAGCICEVWIQCG (designed binder) [N2L.EET31.43.88 displayed on M13 phage (p3)]
1.9

What value of ELISA has been reported for the following binder? GCIRSHLWCPPSASCLAGCVCEVWIQCG (designed binder) [N2L.EET31.32.70 displayed on M13 phage (p3)]
1.9

What value of ELISA has been reported for the following binder? GCIKSHLWCDPRKDCEAGCICEVWIQCG (designed binder) [N2L.EET31.43.75 displayed on M13 phage (p3)]
2.1

What value of ELISA has been reported for the following binder? GCIKSHLWCPRDSDCLAGCVCEVWIQCG (designed binder) [N2L.EET31.32.13 displayed on M13 phage (p3)]
2.2

What value of ELISA has been reported for the following binder? GCIKSHLWCPHGGRCEAGCICEVWIQCG (designed binder) [N2L.EET31.43.30 displayed on M13 phage (p3)]
2.2

What value of ELISA has been reported for the following binder? GCIKSHLWCPRAEKCLAGCICEVWIQCG (designed binder) [N2L.EET31.32.33 displayed on M13 phage (p3)]
1.9

What value of ELISA has been reported for the following binder? GCIRSHVWCKQDSDCEAGCICEIWIQCG (designed binder) [N2L.EET31.43.43 displayed on M13 phage (p3)]
2

What value of ELISA has been reported for the following binder? GCIRSHVWCKQDSDCEAGCICEVWVKCG (designed binder) [N2L.EET31.43.64 displayed on M13 phage (p3)]
2

What value of ELISA has been reported for the following binder? GCVRSHLWCKQDSDCEAGCICEVWIKCG (designed binder) [N2L.EET31.43.73 displayed on M13 phage (p3)]
2.3

What value of ELISA has been reported for the following binder? GCIKSHLWCPKTSDCEAGCICEVWIQCG (designed binder) [N2L.EET31.43.24 displayed on M13 phage (p3)]
2.1

What value of ELISA has been reported for the following binder? GCIKSHLWCPPSDYCLAGCVCEVWIQCG (designed binder) [N2L.EET31.32.21 displayed on M13 phage (p3)]
1.8

What value of ELISA has been reported for the following binder? GCIKSHLWCPSDERCLAGCVCEVWIQCG (designed binder, also called N2L.31.L2.32) [N2L.EET31.32 displayed on M13 phage (p3)]
0.5

Hey, just so you know, these numbers are from paper PMC10977697.
